# Tested on: DU-145
# run_description: NCI tumour cell line growth inhibition, 48 h
Activity calls are given as the source filed them. Rule as the data show it: active = GI50 up to about 1.1 µM and inactive = higher.
Permitted responses: TRUE = active, FALSE = inactive

Assay result, entry COC(=O)/C=C(/C(=O)OC)c1c(C)cc2c(C)cc(C)cc(C)c1-2 — outcome? FALSE

For CC1(C)C(=O)N(O)C(C)(C)N1N=O , which call appears in the assay record? FALSE

Identify the outcome logged in this assay for the compound shown: COC(=O)N/N=C(\C)C(CN1CCOCC1)C(c1ccccc1)c1cc2ccccc2oc1=O (stereo unspecified) FALSE

Which outcome was assigned to CN(C)CCNC1=Nc2ccccc2C(=O)N2CSCC12 (stereo unspecified) in this test? FALSE

Dear all, I need the recorded test outcome for Cc1cc(C)c2c(O)cc(-c3cccc(Cl)c3)nc2n1 , thank you. TRUE

Which result was noted for this compound in the test: Nc1ncnc2c1ncn2C1C=CC(COS(N)(=O)=O)C1 (stereo unspecified) FALSE

Tell me the recorded outcome of this test for CC(C)(C)OC(=O)N/N=C(/N)Cc1ccc(Cl)cc1 . FALSE

Give the logged outcome of this assay for the following compound: C/C=C(/C)C(=O)O[C@H]1[C@H]2[C@@H]([C@@H](OC(C)=O)[C@H](C)C(=O)[C@@]34C[C@@H](C)C(=O)[C@]3(/C=C(\C)[C@H]1OC(C)=O)O4)C2(C)C FALSE

Check the results log: what was the call for C=C(C)CN(CC#N)CC(=C)C ? FALSE

Outcome logged for CCN(CC)CCn1c2cc3c(cc2c(=O)c2cccnc21)OCO3 in this assay: FALSE

Which result was noted for this compound in the test: O=C(O)/C=C/c1ccc(O)c(O)c1 FALSE
